Entries below carry reported Ki on UniProt:P42866.
Sequence (P42866 whole entry): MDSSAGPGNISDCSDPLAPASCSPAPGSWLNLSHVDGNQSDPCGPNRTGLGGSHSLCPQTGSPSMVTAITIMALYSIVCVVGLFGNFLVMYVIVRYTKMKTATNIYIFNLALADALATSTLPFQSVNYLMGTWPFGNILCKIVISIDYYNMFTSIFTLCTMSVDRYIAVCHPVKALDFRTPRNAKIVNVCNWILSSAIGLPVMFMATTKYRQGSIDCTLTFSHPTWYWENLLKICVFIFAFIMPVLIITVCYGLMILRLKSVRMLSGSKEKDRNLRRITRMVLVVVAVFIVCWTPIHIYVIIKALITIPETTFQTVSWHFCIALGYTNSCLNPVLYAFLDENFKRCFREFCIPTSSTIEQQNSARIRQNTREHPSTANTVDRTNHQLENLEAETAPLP
Could you give me the number in nM? Just the number is fine.

# count of solved cases: 10
O=C(N[C@@]12CCC(=O)[C@@H]3Oc4c(O)ccc5c4[C@@]31CCN(CC1CC1)[C@@H]2C5)c1ccncc1: 0.82
O=C(N[C@@]12CCC(=O)[C@@H]3Oc4c(O)ccc5c4[C@@]31CCN(CC1CC1)[C@@H]2C5)c1ccc2ccccc2c1: 6.22
O=C(O[C@@]12CCC(=O)[C@@H]3Oc4c(O)ccc5c4[C@@]31CCN(CC1CC1)[C@@H]2C5)c1ccccc1: 123
O=C(N[C@@]12CCC(=O)[C@@H]3Oc4c(O)ccc5c4[C@@]31CCN(CC1CC1)[C@@H]2C5)c1ccc2ccccc2n1: 9.09
O=C(N[C@@]12CCC(=O)[C@@H]3Oc4c(O)ccc5c4[C@@]31CCN(CC1CC1)[C@@H]2C5)c1cnc2ccccc2c1: 1.13
O=C(N[C@@]12CCC(=O)[C@@H]3Oc4c(O)ccc5c4[C@@]31CCN(CC1CC1)[C@@H]2C5)c1ccccn1: 1.51
O=C(O[C@@]12CCC(=O)[C@@H]3Oc4c(O)ccc5c4[C@@]31CCN(CC1CC1)[C@@H]2C5)c1ccc2ccccc2n1: 1.44
O=C(CNC(=O)c1ccccn1)N[C@@]12CCC(=O)[C@@H]3Oc4c(O)ccc5c4[C@@]31CCN(CC1CC1)[C@@H]2C5: 0.3
O=C(CCc1ccccn1)N[C@@]12CCC(=O)[C@@H]3Oc4c(O)ccc5c4[C@@]31CCN(CC1CC1)[C@@H]2C5: 0.32
O=C(Cc1ccccn1)N[C@@]12CCC(=O)[C@@H]3Oc4c(O)ccc5c4[C@@]31CCN(CC1CC1)[C@@H]2C5: 0.29

Requested read-out Ki, target or system UniProt:P42866, entry `O=C(O[C@@]12CCC(=O)[C@@H]3Oc4c(O)ccc5c4[C@@]31CCN(CC1CC1)[C@@H]2C5)c1cc2ccccc2cn1`
68.4

Requested read-out Ki, target or system UniProt:P42866, entry `O=C(N[C@@]12CCC(=O)[C@@H]3Oc4c(O)ccc5c4[C@@]31CCN(CC1CC1)[C@@H]2C5)c1cc2ccccc2cn1`
3.5

Requested read-out Ki, target or system UniProt:P42866, entry `O=C(O[C@@]12CCC(=O)[C@@H]3Oc4c(O)ccc5c4[C@@]31CCN(CC1CC1)[C@@H]2C5)c1ccccn1`
0.14

Requested read-out Ki, target or system UniProt:P42866, entry `O=C(O[C@@]12CCC(=O)[C@@H]3Oc4c(O)ccc5c4[C@@]31CCN(CC1CC1)[C@@H]2C5)c1cnc2ccccc2c1`
2.69

Requested read-out Ki, target or system UniProt:P42866, entry `O=C(O[C@@]12CCC(=O)[C@@H]3Oc4c(O)ccc5c4[C@@]31CCN(CC1CC1)[C@@H]2C5)c1ccncc1`
5.58
